measurement_target: Serine/threonine-protein kinase 33 (Homo sapiens, UniProt Q9BYT3)
Sequence (Q9BYT3 whole entry): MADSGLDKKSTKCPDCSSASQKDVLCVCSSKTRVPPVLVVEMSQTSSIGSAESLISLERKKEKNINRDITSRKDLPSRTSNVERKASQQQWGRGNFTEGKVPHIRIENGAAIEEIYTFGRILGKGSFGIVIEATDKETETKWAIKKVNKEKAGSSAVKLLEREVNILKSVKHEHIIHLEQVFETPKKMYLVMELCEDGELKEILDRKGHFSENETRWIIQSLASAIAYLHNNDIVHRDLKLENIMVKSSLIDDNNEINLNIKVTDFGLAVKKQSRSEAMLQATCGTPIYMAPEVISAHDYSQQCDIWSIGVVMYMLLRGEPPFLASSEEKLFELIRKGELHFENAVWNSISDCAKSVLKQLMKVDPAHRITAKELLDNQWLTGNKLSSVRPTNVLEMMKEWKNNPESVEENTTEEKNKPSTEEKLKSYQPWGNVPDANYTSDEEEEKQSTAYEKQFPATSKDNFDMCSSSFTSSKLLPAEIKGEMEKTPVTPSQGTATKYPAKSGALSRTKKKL
experiment_description: STK33 kinase inhibitors, dose response, biochemical, luminescence, cell-free, retest (AID 2821)
pEC50: −log10 of the molar value.
# cutoff 5 applies to pEC50; >= gives fulfilled, < gives not fulfilled

Could you please find out whether CCN(CC)C(=O)c1ccc(NC(=O)Nc2ccccc2F)cc1 has pEC50 that meets 5 or exceeds it?
not fulfilled

Now consider Cc1cccc(C(=N)NOC(=O)c2ccc3c(c2)OCO3)c1 and answer again.
not fulfilled

Now consider Cc1cc(C(=O)O)ccc1N=Cc1c(O)ccc2ccccc12 and answer again.
not fulfilled

Now consider Cn1c(/N=N/c2ccccc2)nc2ccccc21 and answer again.
not fulfilled

Now consider O=C1NC2c3ccccc3C(=O)N2c2c1cnn2-c1ccccc1 (configuration not stated) and answer again.
not fulfilled

Now consider COc1cc(C=Nn2c(C3CCCCC3)n[nH]c2=S)ccc1O and answer again.
not fulfilled

Now consider CCNC(=S)Nc1ccc2cn[nH]c2c1 and answer again.
not fulfilled

Now consider OCCN1CCN(c2nc(-c3ccccc3O)nc3ccccc23)CC1 and answer again.
not fulfilled

Now consider COC(=O)Nc1nnc(Cc2ccccc2)s1 and answer again.
not fulfilled

Now consider Oc1ccc(CN=Nc2ccc(C(F)(F)F)cn2)cc1 and answer again.
not fulfilled

Now consider COc1ccc(NC(=O)c2cc([N+](=O)[O-])ccc2O)cc1 and answer again.
not fulfilled

Now consider Nc1nc(-c2cc(O)ccc2[N+](=O)[O-])cc(-c2ccccc2)c1[N+](=O)[O-] and answer again.
fulfilled

Now consider CC(Oc1ccc2c(c1)c1ccnc3c4ccccc4c(=O)n2c13)C(=O)NCCN1CCOCC1 (configuration not stated) and answer again.
fulfilled

Now consider CC(N=Nc1ccnc2cc(Cl)ccc12)c1ccc(O)cc1 (configuration not stated) and answer again.
not fulfilled

Now consider COc1ccc(C(=O)ON=C(C)c2ccccc2)cc1 and answer again.
not fulfilled

Now consider O=C(Nc1ccccc1-c1nc2ccccc2[nH]c1=O)c1cccs1 and answer again.
fulfilled

Now consider CCOc1cc(/C=C2\SC(N3CCCC(C)C3)=NC2=O)ccc1O (configuration not stated) and answer again.
not fulfilled

Now consider CN(C)/C=C/C(=O)c1ccc2noc(-c3cccc(F)c3)c2c1 and answer again.
not fulfilled

###

measurement_target: Serine/threonine-protein kinase 33 (Homo sapiens, UniProt Q9BYT3)
experiment_description: STK33 kinase inhibitors, dose response, biochemical, luminescence, cell-free, retest (AID 2821)
Would you kindly list EC50 for each of these molecules?
Reply with just the number (in µM).

Data request, read-out EC50, for COC(=O)c1ccccc1NC(=O)N1CCN(C/C=C/c2ccccc2)CC1
8.73

Now consider CC(C)n1cnc2c(Nc3cccc(Cl)c3)nc(NCCCO)nc21 and answer again.
1.84

Now consider Nc1ccc(N=Nc2ccccc2O)c(N)c1 and answer again.
16.1

###

measurement_target: Serine/threonine-protein kinase 33 (Homo sapiens)
experiment_description: STK33 kinase inhibitors, dose response, biochemical, luminescence, cell-free, retest (AID 2821)
quantity_measured: EC50 (µM)
Reply with just the number (in µM).

Data request, read-out EC50, for C=CC(=O)Nc1ccc(Nc2nc(NC3CCC(N(C)C)CC3)nc3c2ncn3C(C)C)cc1 (stereo unspecified)
0.883

Now consider O=C1/C(=C/c2ccc(O)c(O)c2)Oc2cc(O)ccc21 and answer again.
9.63

Now consider c1cncc(C2Nc3ccccc3-c3nc4ccccc4n32)c1 (stereo unspecified) and answer again.
27.1

Now consider COc1cc(C=C2SC(Nc3ccc(Cl)c(C(=O)O)c3)=NC2=O)c(Br)c(Br)c1O and answer again.
15.9

Now consider CN1CCN(c2ccc(NC(=O)c3ccc(-c4cccc([N+](=O)[O-])c4)o3)cc2)CC1 and answer again.
20.2

Now consider O=C1N=c2ccccc2=C1NNc1ccc(C(=O)O)cc1 and answer again.
36.8

Now consider Cc1nn(C)cc1/C=C/C(=O)c1ccc(O)cc1 and answer again.
29

Now consider CN1CCCC1CCNc1ccc2sc3ccccc3c(=O)c2c1 (stereo unspecified) and answer again.
16.6

Now consider O=C1c2ccccc2C(=O)C1c1ccncc1 and answer again.
10.3

Now consider O=C1NCCCc2c1oc1ccc(O)cc21 and answer again.
3.71
